# ASSAY_TARGET: IP-3 receptor (Rattus norvegicus)
# Construct: from tissue; host or cells: rat cerebellum (microsomal membrane preparation)
# Sequence (P29994 whole entry): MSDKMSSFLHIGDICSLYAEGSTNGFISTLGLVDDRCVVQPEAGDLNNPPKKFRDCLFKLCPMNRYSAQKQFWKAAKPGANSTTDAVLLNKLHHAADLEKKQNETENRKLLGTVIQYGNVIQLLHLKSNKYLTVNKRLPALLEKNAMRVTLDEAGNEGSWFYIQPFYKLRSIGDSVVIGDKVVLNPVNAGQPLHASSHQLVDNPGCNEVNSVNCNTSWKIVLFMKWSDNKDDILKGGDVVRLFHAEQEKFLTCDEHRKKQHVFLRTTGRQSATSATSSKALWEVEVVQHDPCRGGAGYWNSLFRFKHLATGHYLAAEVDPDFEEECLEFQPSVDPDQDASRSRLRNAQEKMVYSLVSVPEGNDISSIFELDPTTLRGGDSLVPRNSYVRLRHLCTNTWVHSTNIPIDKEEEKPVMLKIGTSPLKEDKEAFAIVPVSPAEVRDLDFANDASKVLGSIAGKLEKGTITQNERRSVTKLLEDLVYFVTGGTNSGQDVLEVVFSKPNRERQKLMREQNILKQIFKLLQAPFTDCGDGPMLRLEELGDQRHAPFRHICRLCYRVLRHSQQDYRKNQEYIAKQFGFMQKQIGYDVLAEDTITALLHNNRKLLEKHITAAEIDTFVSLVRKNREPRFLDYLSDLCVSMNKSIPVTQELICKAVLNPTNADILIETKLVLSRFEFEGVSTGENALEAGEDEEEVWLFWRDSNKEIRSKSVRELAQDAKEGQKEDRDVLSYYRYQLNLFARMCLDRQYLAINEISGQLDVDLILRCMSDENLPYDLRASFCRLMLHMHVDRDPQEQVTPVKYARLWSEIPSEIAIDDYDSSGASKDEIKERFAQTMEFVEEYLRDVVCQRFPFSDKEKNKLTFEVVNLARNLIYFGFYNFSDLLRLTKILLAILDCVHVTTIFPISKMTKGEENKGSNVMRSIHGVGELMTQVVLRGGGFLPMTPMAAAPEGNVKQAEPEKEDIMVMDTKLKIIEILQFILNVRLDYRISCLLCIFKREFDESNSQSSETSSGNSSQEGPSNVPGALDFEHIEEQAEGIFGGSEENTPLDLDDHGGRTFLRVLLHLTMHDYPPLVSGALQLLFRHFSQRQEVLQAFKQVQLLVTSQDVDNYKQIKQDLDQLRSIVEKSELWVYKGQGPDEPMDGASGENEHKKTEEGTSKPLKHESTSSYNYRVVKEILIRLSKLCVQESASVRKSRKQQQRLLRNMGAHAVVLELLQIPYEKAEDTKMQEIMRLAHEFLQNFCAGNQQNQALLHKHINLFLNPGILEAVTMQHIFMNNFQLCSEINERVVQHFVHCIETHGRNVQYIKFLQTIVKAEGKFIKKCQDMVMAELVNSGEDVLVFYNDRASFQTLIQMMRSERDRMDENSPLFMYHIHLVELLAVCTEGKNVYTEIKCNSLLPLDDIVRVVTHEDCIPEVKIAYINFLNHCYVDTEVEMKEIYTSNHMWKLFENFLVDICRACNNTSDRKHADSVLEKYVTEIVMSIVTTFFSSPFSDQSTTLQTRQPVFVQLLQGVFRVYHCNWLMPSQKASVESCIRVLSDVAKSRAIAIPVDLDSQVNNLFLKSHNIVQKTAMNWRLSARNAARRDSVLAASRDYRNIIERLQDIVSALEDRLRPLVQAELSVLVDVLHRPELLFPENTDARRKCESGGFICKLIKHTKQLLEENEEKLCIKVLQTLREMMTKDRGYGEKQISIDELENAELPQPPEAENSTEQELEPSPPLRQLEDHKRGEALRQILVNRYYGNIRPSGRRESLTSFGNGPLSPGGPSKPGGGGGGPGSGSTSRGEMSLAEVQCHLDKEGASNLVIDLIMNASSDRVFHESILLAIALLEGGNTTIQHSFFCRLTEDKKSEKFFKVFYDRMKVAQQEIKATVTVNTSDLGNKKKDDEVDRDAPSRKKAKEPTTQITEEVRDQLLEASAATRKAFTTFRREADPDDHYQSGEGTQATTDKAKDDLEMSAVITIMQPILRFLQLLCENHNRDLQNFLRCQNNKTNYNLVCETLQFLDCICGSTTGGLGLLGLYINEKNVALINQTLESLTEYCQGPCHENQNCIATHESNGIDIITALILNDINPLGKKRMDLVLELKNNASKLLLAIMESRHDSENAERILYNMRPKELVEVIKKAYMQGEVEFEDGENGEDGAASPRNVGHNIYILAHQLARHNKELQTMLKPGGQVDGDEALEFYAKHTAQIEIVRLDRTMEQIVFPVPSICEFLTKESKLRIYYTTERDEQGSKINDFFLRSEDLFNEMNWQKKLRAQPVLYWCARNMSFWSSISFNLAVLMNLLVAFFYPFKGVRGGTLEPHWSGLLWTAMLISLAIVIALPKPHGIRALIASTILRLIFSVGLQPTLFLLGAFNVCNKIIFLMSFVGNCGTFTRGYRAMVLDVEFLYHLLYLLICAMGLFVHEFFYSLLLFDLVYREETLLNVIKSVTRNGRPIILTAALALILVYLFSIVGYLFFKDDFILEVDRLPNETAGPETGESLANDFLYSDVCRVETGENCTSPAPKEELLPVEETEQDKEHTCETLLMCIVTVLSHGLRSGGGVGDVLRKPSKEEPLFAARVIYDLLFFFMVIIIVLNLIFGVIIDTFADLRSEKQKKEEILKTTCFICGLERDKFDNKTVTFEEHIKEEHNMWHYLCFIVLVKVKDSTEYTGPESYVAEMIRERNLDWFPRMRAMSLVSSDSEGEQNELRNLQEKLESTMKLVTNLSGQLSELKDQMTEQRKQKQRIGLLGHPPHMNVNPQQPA
# EXPERIMENTAL_PROTOCOL: IP-3 receptor antagonistic effect: inhibition of IP3 binding in rat cerebellum membrane preparations (Model 5)
# STUDY_CONDITIONS: read-out: IC50 (μg/ml) Average ± SEM (n) (converted)
# Method: The polysulfated glycosides of the present invention, depending on their chemical structure, inhibit the binding of inositol-1,4,5-trisphosphate (IP3) to its receptor in microsomal membrane preparations. […] The IP3 antagonist effect of the polysulfated glycosides was determined using rat cerebellum membrane preparations according to Worley et al. (JBC 262, 12132, 1987).
Where a name gives a salt, the structure may show the parent alone.
READOUT_TYPE: IC50 (nM)

MOLECULE	READOUT_TYPE	REPORTED_MEASUREMENT
O=S(=O)(O)OC[C@H]1O[C@@H](O[C@H]2[C@H](OS(=O)(=O)O)[C@@H](COS(=O)(=O)O)O[C@@H]2COS(=O)(=O)O)[C@H](OS(=O)(=O)O)[C@@H](OS(=O)(=O)O)[C@@H]1O[C@H]1O[C@H](COS(=O)(=O)O)[C@@H](OS(=O)(=O)O)[C@H](OS(=O)(=O)O)[C@H]1OS(=O)(=O)O [Example 6, potassium salt]	IC50	287
